Test: Ratio of methyl alpha-D-mannoside IC50 to compound IC50 for binding affinity to Concanavalin A

Molecule	Ratio IC50
OC[C@H]1OC(O)[C@@H](O)[C@@H](O)[C@@H]1O (stereo partly drawn) [D-MANNOSE]	0.13
NC(=O)[C@H](CCCCNC(=O)[C@H](CCCCNC(=O)[C@H](Cc1ccc(O)cc1)NC(=O)CCS[C@H]1O[C@H](CO)[C@@H](O)[C@H](O)[C@@H]1O)NC(=O)[C@H](Cc1ccc(O)cc1)NC(=O)CCS[C@@H]1O[C@@H](CO)[C@H](O)[C@@H](O)[C@H]1O)NC(=O)[C@H](CCCCNC(=O)[C@H](Cc1ccc(O)cc1)NC(=O)CCS[C@H]1O[C@H](CO)[C@@H](O)[C@H](O)[C@@H]1O)NC(=O)[C@H](Cc1ccc(O)cc1)NC(=O)CCS[C@@H]1O[C@@H](CO)[C@H](O)[C@@H](O)[C@H]1O	25.4
NC(=O)[C@H](CCCCNC(=O)[C@H](CCC(=O)O)NC(=O)[C@H](CCCCNC(=O)[C@H](Cc1ccc(O)cc1)NC(=O)CCS[C@@H]1O[C@@H](CO)[C@H](O)[C@@H](O)[C@H]1O)NC(=O)[C@H](Cc1ccc(O)cc1)NC(=O)CCS[C@H]1O[C@H](CO)[C@@H](O)[C@H](O)[C@@H]1O)NC(=O)[C@H](CCC(=O)O)NC(=O)[C@H](CCCCNC(=O)[C@H](Cc1ccc(O)cc1)NC(=O)CCS[C@H]1O[C@H](CO)[C@@H](O)[C@H](O)[C@@H]1O)NC(=O)[C@H](Cc1ccc(O)cc1)NC(=O)CCS[C@H]1O[C@H](CO)[C@@H](O)[C@H](O)[C@@H]1O	22
O=[N+]([O-])c1ccc(O[C@H]2O[C@H](CO)[C@@H](O)[C@H](O)[C@@H]2O)cc1	2.1
NC(=O)[C@H](CCCCNC(=O)[C@H](Cc1ccc(O)cc1)NC(=O)CCS[C@H]1O[C@H](CO)[C@@H](O)[C@H](O)[C@@H]1O)NC(=O)[C@H](Cc1ccc(O)cc1)NC(=O)CCS[C@@H]1O[C@@H](CO)[C@H](O)[C@@H](O)[C@H]1O	8.8
NC(=O)[C@H](CSSC[C@H](NC(=O)[C@H](CCCCNC(=O)[C@H](Cc1ccc(O)cc1)NC(=O)CCS[C@H]1O[C@H](CO)[C@@H](O)[C@H](O)[C@@H]1O)NC(=O)[C@H](Cc1ccc(O)cc1)NC(=O)CCS[C@@H]1O[C@@H](CO)[C@H](O)[C@@H](O)[C@H]1O)C(N)=O)NC(=O)[C@H](CCCCNC(=O)[C@H](Cc1ccc(O)cc1)NC(=O)CCS[C@H]1O[C@H](CO)[C@@H](O)[C@H](O)[C@@H]1O)NC(=O)[C@H](Cc1ccc(O)cc1)NC(=O)CCS[C@@H]1O[C@@H](CO)[C@H](O)[C@@H](O)[C@H]1O	25.4
N=C(N)NCCC[C@H](NC(=O)[C@H](CCCCNC(=O)[C@H](Cc1ccc(O)cc1)NC(=O)CCS[C@@H]1O[C@@H](CO)[C@H](O)[C@@H](O)[C@H]1O)NC(=O)[C@H](Cc1ccc(O)cc1)NC(=O)CCS[C@H]1O[C@H](CO)[C@@H](O)[C@H](O)[C@@H]1O)C(=O)NCCCC[C@H](NC(=O)[C@H](CCCNC(=N)N)NC(=O)[C@H](CCCCNC(=O)[C@H](Cc1ccc(O)cc1)NC(=O)CCS[C@H]1O[C@H](CO)[C@@H](O)[C@H](O)[C@@H]1O)NC(=O)[C@H](Cc1ccc(O)cc1)NC(=O)CCS[C@H]1O[C@H](CO)[C@@H](O)[C@H](O)[C@@H]1O)C(N)=O	14.3

====

Test: Ratio of methyl alpha-D-mannoside IC50 to compound IC50 for binding affinity to Concanavalin A

Smiles entry	Ratio IC50
NC(=O)[C@H](CO)NC(=O)[C@H](CCCCNC(=O)[C@H](CCCCNC(=O)[C@H](Cc1ccc(O)cc1)NC(=O)CCS[C@H]1O[C@H](CO)[C@@H](O)[C@H](O)[C@@H]1O)NC(=O)[C@H](Cc1ccc(O)cc1)NC(=O)CCS[C@@H]1O[C@@H](CO)[C@H](O)[C@@H](O)[C@H]1O)NC(=O)[C@H](CCCCNC(=O)[C@H](Cc1ccc(O)cc1)NC(=O)CCS[C@H]1O[C@H](CO)[C@@H](O)[C@H](O)[C@@H]1O)NC(=O)[C@H](Cc1ccc(O)cc1)NC(=O)CCS[C@@H]1O[C@@H](CO)[C@H](O)[C@@H](O)[C@H]1O	24

====

Assay: Ratio of methyl alpha-D-mannoside IC50 to compound IC50 for binding affinity to Concanavalin A per carbohydrate moiety
Where a SMILES comes first, the peptide text is derived from it. Bridges are numbered along the chain shown (N, C = ends). Roman numbers before positions name the chains, in order. [ ]: non-standard residue; d: D form. The star is where a group is joined. αMan = OC[C@H]1O[C@H](*)[C@@H](O)[C@@H](O)[C@@H]1O; Mpa = O=C(O)CCS
Property label: Ratio IC50

Molecule	Property label	Recorded measurement
N=C(N)NCCC[C@H](NC(=O)[C@H](CCCCNC(=O)[C@H](CCCCNC(=O)[C@H](Cc1ccc(O)cc1)NC(=O)CCS[C@H]1O[C@H](CO)[C@@H](O)[C@H](O)[C@@H]1O)NC(=O)[C@H](Cc1ccc(O)cc1)NC(=O)CCS[C@@H]1O[C@@H](CO)[C@H](O)[C@@H](O)[C@H]1O)NC(=O)[C@H](CCCCNC(=O)[C@H](Cc1ccc(O)cc1)NC(=O)CCS[C@H]1O[C@H](CO)[C@@H](O)[C@H](O)[C@@H]1O)NC(=O)[C@H](Cc1ccc(O)cc1)NC(=O)CCS[C@@H]1O[C@@H](CO)[C@H](O)[C@@H](O)[C@H]1O)C(N)=O	Ratio IC50	5.3
NC(=O)[C@H](CCCCNC(=O)[C@H](CO)NC(=O)[C@H](CCCCNC(=O)[C@H](Cc1ccc(O)cc1)NC(=O)CCS[C@@H]1O[C@@H](CO)[C@H](O)[C@@H](O)[C@H]1O)NC(=O)[C@H](Cc1ccc(O)cc1)NC(=O)CCS[C@H]1O[C@H](CO)[C@@H](O)[C@H](O)[C@@H]1O)NC(=O)[C@H](CO)NC(=O)[C@H](CCCCNC(=O)[C@H](Cc1ccc(O)cc1)NC(=O)CCS[C@H]1O[C@H](CO)[C@@H](O)[C@H](O)[C@@H]1O)NC(=O)[C@H](Cc1ccc(O)cc1)NC(=O)CCS[C@H]1O[C@H](CO)[C@@H](O)[C@H](O)[C@@H]1O	Ratio IC50	5.2
NC(=O)[C@H](CSSC[C@H](NC(=O)[C@H](Cc1ccc(O)cc1)NC(=O)CCS[C@H]1O[C@H](CO)[C@@H](O)[C@H](O)[C@@H]1O)C(N)=O)NC(=O)[C@H](Cc1ccc(O)cc1)NC(=O)CCS[C@H]1O[C@H](CO)[C@@H](O)[C@H](O)[C@@H]1O (I: [Mpa](αMan)-Tyr-Cys-NH2 / II: [Mpa](αMan)-Tyr-Cys-NH2; disulfide I:3-II:3)	Ratio IC50	6.4

====

Assay: Displacement of yeast mannan from Concanavalin A by Enzyme-linked lectin assay
pIC50: −log10 of the molar value. Where a SMILES comes first, the peptide text is derived from it. Bridges are numbered along the chain shown (N, C = ends). Roman numbers before positions name the chains, in order. [ ]: non-standard residue; d: D form. The star is where a group is joined. αMan = OC[C@H]1O[C@H](*)[C@@H](O)[C@@H](O)[C@@H]1O; Mpa = O=C(O)CCS
Item-by-item account of pIC50
Property label: pIC50

Compound	Recorded measurement
NC(=O)[C@H](CSSC[C@H](NC(=O)[C@H](Cc1ccc(O)cc1)NC(=O)CCS[C@H]1O[C@H](CO)[C@@H](O)[C@H](O)[C@@H]1O)C(N)=O)NC(=O)[C@H](Cc1ccc(O)cc1)NC(=O)CCS[C@H]1O[C@H](CO)[C@@H](O)[C@H](O)[C@@H]1O (I: [Mpa](αMan)-Tyr-Cys-NH2 / II: [Mpa](αMan)-Tyr-Cys-NH2; disulfide I:3-II:3)	3.98
N=C(N)NCCC[C@H](NC(=O)[C@H](CCCCNC(=O)[C@H](CCCCNC(=O)[C@H](Cc1ccc(O)cc1)NC(=O)CCS[C@H]1O[C@H](CO)[C@@H](O)[C@H](O)[C@@H]1O)NC(=O)[C@H](Cc1ccc(O)cc1)NC(=O)CCS[C@@H]1O[C@@H](CO)[C@H](O)[C@@H](O)[C@H]1O)NC(=O)[C@H](CCCCNC(=O)[C@H](Cc1ccc(O)cc1)NC(=O)CCS[C@H]1O[C@H](CO)[C@@H](O)[C@H](O)[C@@H]1O)NC(=O)[C@H](Cc1ccc(O)cc1)NC(=O)CCS[C@@H]1O[C@@H](CO)[C@H](O)[C@@H](O)[C@H]1O)C(N)=O	4.21
NC(=O)[C@H](CCC(=O)O)NC(=O)[C@H](CCCCNC(=O)[C@H](CCCCNC(=O)[C@H](Cc1ccc(O)cc1)NC(=O)CCS[C@H]1O[C@H](CO)[C@@H](O)[C@H](O)[C@@H]1O)NC(=O)[C@H](Cc1ccc(O)cc1)NC(=O)CCS[C@@H]1O[C@@H](CO)[C@H](O)[C@@H](O)[C@H]1O)NC(=O)[C@H](CCCCNC(=O)[C@H](Cc1ccc(O)cc1)NC(=O)CCS[C@H]1O[C@H](CO)[C@@H](O)[C@H](O)[C@@H]1O)NC(=O)[C@H](Cc1ccc(O)cc1)NC(=O)CCS[C@@H]1O[C@@H](CO)[C@H](O)[C@@H](O)[C@H]1O	4.03
NC(=O)[C@H](CO)NC(=O)[C@H](CCCCNC(=O)[C@H](CCCCNC(=O)[C@H](Cc1ccc(O)cc1)NC(=O)CCS[C@H]1O[C@H](CO)[C@@H](O)[C@H](O)[C@@H]1O)NC(=O)[C@H](Cc1ccc(O)cc1)NC(=O)CCS[C@@H]1O[C@@H](CO)[C@H](O)[C@@H](O)[C@H]1O)NC(=O)[C@H](CCCCNC(=O)[C@H](Cc1ccc(O)cc1)NC(=O)CCS[C@H]1O[C@H](CO)[C@@H](O)[C@H](O)[C@@H]1O)NC(=O)[C@H](Cc1ccc(O)cc1)NC(=O)CCS[C@@H]1O[C@@H](CO)[C@H](O)[C@@H](O)[C@H]1O	4.26
NC(=O)[C@H](CCCCNC(=O)[C@H](CCCCNC(=O)[C@H](Cc1ccc(O)cc1)NC(=O)CCS[C@H]1O[C@H](CO)[C@@H](O)[C@H](O)[C@@H]1O)NC(=O)[C@H](Cc1ccc(O)cc1)NC(=O)CCS[C@@H]1O[C@@H](CO)[C@H](O)[C@@H](O)[C@H]1O)NC(=O)[C@H](CCCCNC(=O)[C@H](Cc1ccc(O)cc1)NC(=O)CCS[C@H]1O[C@H](CO)[C@@H](O)[C@H](O)[C@@H]1O)NC(=O)[C@H](Cc1ccc(O)cc1)NC(=O)CCS[C@@H]1O[C@@H](CO)[C@H](O)[C@@H](O)[C@H]1O	4.28
N=C(N)NCCC[C@H](NC(=O)[C@H](CCCCNC(=O)[C@H](Cc1ccc(O)cc1)NC(=O)CCS[C@@H]1O[C@@H](CO)[C@H](O)[C@@H](O)[C@H]1O)NC(=O)[C@H](Cc1ccc(O)cc1)NC(=O)CCS[C@H]1O[C@H](CO)[C@@H](O)[C@H](O)[C@@H]1O)C(=O)NCCCC[C@H](NC(=O)[C@H](CCCNC(=N)N)NC(=O)[C@H](CCCCNC(=O)[C@H](Cc1ccc(O)cc1)NC(=O)CCS[C@H]1O[C@H](CO)[C@@H](O)[C@H](O)[C@@H]1O)NC(=O)[C@H](Cc1ccc(O)cc1)NC(=O)CCS[C@H]1O[C@H](CO)[C@@H](O)[C@H](O)[C@@H]1O)C(N)=O	4.04
